molecular target: UniProtKB P22455; test: Inhibition of FGFR4 (unknown origin) using Poly (Glu,Tyr) 4:1 as substrate incubated for 60 mins in presence of ATP by ELISA analysis
Sequence (P22455 whole entry): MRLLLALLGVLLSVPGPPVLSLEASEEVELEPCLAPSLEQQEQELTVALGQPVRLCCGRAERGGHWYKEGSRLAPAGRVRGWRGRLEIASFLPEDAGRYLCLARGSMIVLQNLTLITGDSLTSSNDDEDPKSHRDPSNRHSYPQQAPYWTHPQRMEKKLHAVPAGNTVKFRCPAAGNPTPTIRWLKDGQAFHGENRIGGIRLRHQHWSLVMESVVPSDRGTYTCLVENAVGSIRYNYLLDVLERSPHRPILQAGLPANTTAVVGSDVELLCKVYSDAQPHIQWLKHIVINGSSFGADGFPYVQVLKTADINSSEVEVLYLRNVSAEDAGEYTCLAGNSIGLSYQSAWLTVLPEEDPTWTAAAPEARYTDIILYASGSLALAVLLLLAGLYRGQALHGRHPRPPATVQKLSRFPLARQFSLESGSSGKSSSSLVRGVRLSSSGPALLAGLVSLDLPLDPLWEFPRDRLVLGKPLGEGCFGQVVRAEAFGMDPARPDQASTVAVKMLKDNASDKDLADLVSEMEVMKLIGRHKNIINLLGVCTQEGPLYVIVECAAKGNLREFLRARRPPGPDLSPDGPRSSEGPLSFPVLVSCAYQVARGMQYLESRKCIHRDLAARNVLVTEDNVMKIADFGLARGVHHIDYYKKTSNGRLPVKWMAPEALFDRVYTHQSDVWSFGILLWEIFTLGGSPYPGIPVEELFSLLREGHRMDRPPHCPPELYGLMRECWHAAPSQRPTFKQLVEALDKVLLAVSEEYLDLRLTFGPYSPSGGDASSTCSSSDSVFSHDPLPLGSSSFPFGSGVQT
Listed next: entries and their corresponding pIC50.
In textbook form, pIC50 equals minus log to base ten of the concentration in mol/L.

>  <molecule>
C=CC(=O)N1CCC(n2nc3c(=O)[nH]nc(N)c3c2-c2oc3ccc(C)cc3c2C)CC1

>  <pIC50>
7.34

$$$$

// switching to the query molecule
Give pIC50; test system UniProtKB P22455; molecule C=CC(=O)N1CCCC(n2nc3c(=O)[nH]nc(N)c3c2-c2oc3ccc(C)cc3c2C)C1 (configuration not stated)
6.81
